Cited source: ChEMBL document CHEMBL2311379

system: Detroit 551; assay: Cytotoxicity against human Detroit 551 cells; assay type: cell-based
Examples of compounds with documented IC50 follow.

I am curious: what IC50 value has been reported for CNc1cccc(-c2cc(=O)c3cc(N4CCCC4)ccc3[nH]2)c1 ? > 10 µM

I am curious: what IC50 value has been reported for CCNc1cccc(-c2cc(=O)c3cc(N4CCCC4)ccc3[nH]2)c1 ? > 10 µM

I am curious: what IC50 value has been reported for CN(C)c1cccc(-c2cc(=O)c3cc(N4CCCC4)ccc3[nH]2)c1 ? > 1 µM

* * *

Examples of compounds with documented IC50 follow.
experiment: Cytotoxicity against human H460 cells; format: functional, cell-based; conditions: NCI-H460
All answers are understood in nM, so give the number only.

Worked cases, answers included:
CN(C)c1cccc(-c2cc(=O)c3cc(N4CCCC4)ccc3[nH]2)c1: 13
CNc1cccc(-c2cc(=O)c3cc(N4CCCC4)ccc3[nH]2)c1: 35

Shift focus to the following entry.
I am curious: what IC50 value has been reported for CCNc1cccc(-c2cc(=O)c3cc(N4CCCC4)ccc3[nH]2)c1 ? 20
